Origin of the recorded values: PubChem BioAssay

assayMethodText: inhibitors of mutant huntingtin aggregation, primary screen, imaging, exon1htt(103Q)mCFP cells, high-content imaging (AID 483);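 further: compound exposure lasted 3 days before fixation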
experimentalConditions: exon1htt(103Q)mCFP cell line, aggregate imaging, at 2 µM; active compounds read high

{"columns": ["molecule", "inhibition of aggregation [%]"],
 "data": [
  ["CCCn1c(SCC(=O)Nc2ccccc2C(=O)OC)nc2c1c(=O)n(C)c(=O)n2C", 20.6],
  ["O=C(c1cnn2c1NC(c1ccco1)CC2C(F)(F)F)N1CCN(c2cccc(Cl)c2)CC1 (configuration not stated)", -7.8],
  ["CCc1nnc(NC(=O)C2Cc3ccccc3CN2S(=O)(=O)c2cccs2)s1 (configuration not stated)", -27.6],
  ["O=C(NCCSc1c[nH]c2ccccc12)c1ccc(Br)o1", -4.5],
  ["COc1ccccc1CNS(=O)(=O)c1ccc(NC(C)=O)cc1", -1.3],
  ["CCC(C)(C(=O)NC1CCCCC1)N(Cc1ccco1)C(=O)c1cnccn1 (configuration not stated)", 16.1],
  ["COc1cc(NC2c3ccccc3C(=O)N2c2ccc(C)cn2)cc(OC)c1OC (configuration not stated)", 11.3],
  ["CCCCCc1c(C)nc(Nc2nc(C)c3cc(OC)ccc3n2)[nH]c1=O", 7.6],
  ["c1ccc(C2(Cn3ccc4ccccc43)OCCO2)cc1", -6],
  ["c1ccc(-c2nnc(-c3ccco3)n2-c2ccccc2)cc1", 8.4],
  ["CCOC(=O)N1CCN(c2c(N3CCc4ccccc4C3)c(=O)c2=O)CC1", 13.2],
  ["O=C(Nc1ccc(N2CCN(Cc3ccccc3Cl)CC2)cc1)c1cccnc1", 15.2],
  ["N#Cc1cc2c(nc1SCC(=O)N1CCCCC1)CCCC2", 0.1],
  ["O=C(OCc1cc2ccccc2[nH]c1=O)c1ccco1", 1.7],
  ["CCOCCCNC(=O)C(NC(=O)c1ccccn1)c1ccc(C)cc1 (configuration not stated)", 2.7],
  ["Cc1csc(NC(=O)c2cc3c(s2)-c2ccccc2OC3)n1", 27.8],
  ["Cc1ccc(Cn2c(NCCc3ccccc3)nc3c2c(=O)n(C)c(=O)n3C)cc1", 6.1],
  ["COC(=O)C1(C)NC(c2cccs2)C2C(=O)N(c3ccccc3F)C(=O)C21 (configuration not stated)", -16.9],
  ["CCCCC(=O)NCCc1cc2ccc(OC)cc2[nH]c1=O", 25.1],
  ["CCN(CCCNC(=O)CC1Oc2ccc(C)cc2NC1=O)Cc1ccccc1 (configuration not stated)", 30.8],
  ["O=C(c1ccccc1-c1ccccc1)N1CCN(c2ccccn2)CC1", -81.8],
  ["COc1ccc(OC)c(C2C(C(=O)Nc3ccc(F)cc3)=C(C)Nc3nc(CCCO)nn32)c1 (configuration not stated)", -11.2]
]}
